Quick reference: IC50 of the listed items.
- ASSAYED_SYSTEM: Urease (Canavalia ensiformis, UniProt P07374)
- Sequence (P07374 whole entry): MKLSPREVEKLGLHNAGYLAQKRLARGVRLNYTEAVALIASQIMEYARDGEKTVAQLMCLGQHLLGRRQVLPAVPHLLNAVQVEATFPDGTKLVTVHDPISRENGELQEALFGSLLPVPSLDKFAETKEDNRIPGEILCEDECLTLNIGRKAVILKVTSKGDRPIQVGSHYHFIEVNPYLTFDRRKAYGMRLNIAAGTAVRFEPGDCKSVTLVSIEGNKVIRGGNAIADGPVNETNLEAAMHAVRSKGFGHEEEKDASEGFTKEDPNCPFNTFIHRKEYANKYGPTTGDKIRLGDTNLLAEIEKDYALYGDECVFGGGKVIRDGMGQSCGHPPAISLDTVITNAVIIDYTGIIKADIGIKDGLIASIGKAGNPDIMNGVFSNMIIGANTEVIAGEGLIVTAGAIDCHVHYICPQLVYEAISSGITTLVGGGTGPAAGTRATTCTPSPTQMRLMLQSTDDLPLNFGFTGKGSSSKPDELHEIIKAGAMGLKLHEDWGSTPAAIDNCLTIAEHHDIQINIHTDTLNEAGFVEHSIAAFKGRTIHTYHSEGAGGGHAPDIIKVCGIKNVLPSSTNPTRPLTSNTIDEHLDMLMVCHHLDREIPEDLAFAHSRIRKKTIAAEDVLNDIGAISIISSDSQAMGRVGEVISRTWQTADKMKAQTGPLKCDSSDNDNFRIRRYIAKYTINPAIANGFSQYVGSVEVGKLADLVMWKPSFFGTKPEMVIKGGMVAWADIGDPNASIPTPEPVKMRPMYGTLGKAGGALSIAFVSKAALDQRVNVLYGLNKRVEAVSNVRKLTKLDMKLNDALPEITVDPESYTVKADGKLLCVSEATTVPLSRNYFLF
- TEST: Inhibition of jack bean urease assessed as ammonia production after 30 mins by indophenol method
Please state the value followed by its unit.

Use these answered entries as a reference point.
COMPOUND	IC50
O=C(NC(=S)Nc1ccccc1C(F)(F)F)c1ccccc1	38.2 µM
O=C(NC(=S)Nc1cccc(Cl)c1Cl)c1ccccc1	32.2 µM
O=C(NC(=S)Nc1ccc(Cl)c(Cl)c1)c1ccccc1	5.51 µM
O=C(NC(=S)Nc1ccccc1Cl)c1ccccc1	41.2 µM
CCCCc1ccc(NC(=S)NC(=O)c2ccccc2)cc1	47.2 µM
O=C(NC(=S)Nc1ccc(Cl)cc1)c1ccccc1	35.3 µM
O=C(NC(=S)Nc1cc(Cl)cc(Cl)c1)c1ccccc1	18.4 µM
COc1cccc(NC(=S)NC(=O)c2ccccc2)c1	12.8 µM
Cc1ccc(NC(=S)NC(=O)c2ccccc2)cc1	6.23 µM
O=C(NC(=S)Nc1cccc(Cl)c1)c1ccccc1	27.3 µM

Which IC50 value is on record for O=C(NC(=S)Nc1ccc(Cl)cc1Cl)c1ccccc1 ? 13.2 µM

Try O=C(NC(=S)NCc1ccccc1Cl)c1ccccc1 next. 35.3 µM

Try O=C(NC(=S)Nc1ccc(C(F)(F)F)cc1)c1ccccc1 next. 12.2 µM

Try O=C(NC(=S)Nc1cc(Cl)ccc1Cl)c1ccccc1 next. 4.54 µM

Try O=C(NC(=S)Nc1c(Cl)c(Cl)cc(Cl)c1Cl)c1ccccc1 next. 74.9 µM

Try Cc1cccc(NC(=S)NC(=O)c2ccccc2)c1C next. 3.17 µM

Try O=C(NC(=S)NC1CCCCC1)c1ccccc1 next. 53.2 µM

Try NC(N)=S next. 22.3 µM

Try O=C(NC(=S)Nc1cccc(C(F)(F)F)c1)c1ccccc1 next. 39.6 µM

Try O=C(NC(=S)Nc1c(Cl)cccc1Cl)c1ccccc1 next. 4.27 µM

Try O=C(NC(=S)Nc1cccc(F)c1)c1ccccc1 next. 3.52 µM

Try O=C(NC(=S)Nc1ncccn1)c1ccccc1 next. 8.21 µM

Try O=C(NC(=S)Nc1c(Cl)cc(Cl)cc1Cl)c1ccccc1 next. 1.67 µM

Try Cc1cc(C)c(NC(=S)NC(=O)c2ccccc2)c(C)c1 next. 8.11 µM

Try O=C(NC(=S)Nc1ccccc1)c1ccccc1 [N-(PHENYLCARBAMOTHIOYL)BENZAMIDE] next. 14.1 µM

Try O=C(NC(=S)NCc1ccccc1)c1ccccc1 next. 27.4 µM

Try O=C(NC(=S)Nc1ccc(F)cc1)c1ccccc1 next. 41.2 µM

====

- System: Aspergillus niger
- TEST: Antifungal activity against Aspergillus niger after 24 to 48 hrs by agar well diffusion method
- Type: functional
Quick reference: inhibition zone (IZ) of the listed items.
Could you give me the number in mm? Just the number is fine.

Use these answered entries as a reference point.
COMPOUND	REPORTED_MEASUREMENT
O=C(NC(=S)Nc1ccccc1C(F)(F)F)c1ccccc1	1
CN(C/C=C/C#CC(C)(C)C)Cc1cccc2ccccc12	3
O=C(NC(=S)Nc1ccc(Cl)cc1)c1ccccc1	1

Now look at this one.
Which inhibition zone (IZ) value is on record for O=C(NC(=S)Nc1ccc(Cl)cc1Cl)c1ccccc1 ? 3
